Cited source for all entries: patent US20180036441A1

# maps each entry to its koff
Molecular target: T1, MUC1-SEA-His protein (UniProt P15941 1039-1148, limits assumed)
T1 construct: domain: SEA; Recombinant antigen used for ELISA coating and as Biacore analyte; also called MUC-SEA-His; antigen protein; not shown: His tag
T1 sequence (looked up): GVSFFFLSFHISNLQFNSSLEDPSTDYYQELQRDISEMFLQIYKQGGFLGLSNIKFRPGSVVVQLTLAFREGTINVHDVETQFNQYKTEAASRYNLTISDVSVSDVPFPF
Assay: SPR Biacore T200, antibody captured, antigen as analyte

BINDER	koff, s⁻¹
VH1 + VL4 (antibody, V domains shown, Humanized IgG expressed in HEK293; also called humanized antibody VH1+VL4) VH: QVQLVQSGAEVKKPGSSVKVSCKASGYAFSNFWMNWVRQAPGQGLEWMGQIYPGDGDTNYNGKFKGRVTITADKSTSTAYMELSSLRSEDTAVYYCARSYYRSAWFAYWGQGTLVTVSS VL: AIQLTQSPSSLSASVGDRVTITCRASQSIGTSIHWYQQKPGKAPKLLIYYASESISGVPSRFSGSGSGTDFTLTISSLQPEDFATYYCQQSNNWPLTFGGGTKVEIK	0.0124
VH3 + VL2 (antibody, V domains shown, Humanized IgG expressed in HEK293; also called humanized antibody VH3+VL2) VH: QVQLVQSGAEVKKPGASVKVSCKASGYAFSNFWMNWVRQAPGQGLEWMGQIYPGDGDTNYNGKFKGRVTMTRDTSISTAYMELSRLRSDDTAVYYCARSYYRSAWFAYWGQGTLVTVSS VL: EIVMTQSPATLSVSPGERATLSCRASQSIGTSIHWYQQKPGQAPRLLIYYASESISGIPARFSGSGSGTEFTLTISSLQSEDFAVYYCQQSNNWPLTFGGGTKVEIK	0.0195
VH5 + VL5 (antibody, V domains shown, Humanized IgG expressed in HEK293; also called humanized antibody VH5+VL5) VH: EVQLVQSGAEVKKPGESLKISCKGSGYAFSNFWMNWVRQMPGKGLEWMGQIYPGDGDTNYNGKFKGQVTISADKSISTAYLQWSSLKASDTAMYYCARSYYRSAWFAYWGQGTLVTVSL VL: DIVMTQSPSLLSASTGDRVTISCRASQSIGTSIHWYQQKPGKAPELLIYYASESISGVPSRFSGSGSGTDFTLTISCLQSEDFATYYCQQSNNWPLTFGQGTKVEIK	0.0207
